# T/C listing for each entry below
Tested on: P388 leukemia ip, CD2F1 mice, survival T/C
experimentalProtocol: NCI In Vivo Anticancer Drug Screen. Data for tumor model P388 Leukemia (intraperitoneal) in CD2F1 (CDF1) mice
assaySetup: endpoint: median survival time; dose: 200.0 mg/kg/injection; schedule: Q01DX005 (ip); vehicle: saline with Tween-80; higher = longer survival
Inconclusive results and toxic doses are left out.

T/C in this record for Clc1ccc(C2=NON(c3ccccn3)C3C=CC=CN23)cc1 (configuration not stated) : 93 % of control

T/C in this record for "O=C(NCCCBr)c1csc(-c2csc(CCNC(=O)C(F)(F)F)n2)n1" : 87 % of control

T/C in this record for "Cc1ccc(N(CC(=O)O)S(=O)(=O)c2ccccc2)c(C)c1Cc1cccc(Br)c1" : 101 % of control

T/C in this record for "CCOC(=O)Cc1csc(=S)n1-c1ccccc1" : 90 % of control

T/C in this record for "CCOC(=O)CC1=NC(=Nc2ccc(Cl)c(Cl)c2)SC1" : 100 % of control

T/C in this record for "N#CCCn1nc(Sc2ccccc2)c(=O)[nH]c1=O" : 94 % of control

T/C in this record for "O=C(Nc1cccc2c1C(=O)c1c(NC(=O)c3ccccc3)ccc(Nc3cccc4c3C(=O)c3ccccc3C4=O)c1C2=O)c1ccccc1" : 103 % of control

====

System: P388 leukemia ip, CD2F1 mice, survival T/C
experimentalProtocol: NCI In Vivo Anticancer Drug Screen. Data for tumor model P388 Leukemia (intraperitoneal) in CD2F1 (CDF1) mice
assaySetup: endpoint: median survival time; dose: 100.0 mg/kg/injection; schedule: Q04DX002 (ip); vehicle: Klucel (hydroxypropylcellulose) (HPC); higher = longer survival
Inconclusive results and toxic doses are left out.
readoutName: T/C

Worked cases, answers included:
compound=Cn1c(=O)[nH]c2c(c1=O)CCCN2 result="104 % of control"
compound=C1CCNCC1.CC(=O)[C-](C(C)=O)c1ccccc1.CC(=O)[C-](C(C)=O)c1ccccc1.CC(=O)[C-](C(C)=O)c1ccccc1.CC(=O)[C-](C(C)=O)c1ccccc1.[Eu+3] result="86 % of control"
compound="CCN(CC)C(=O)C(C)C1=C(C)C(N(CC)CC)=NS(=O)(=O)c2ccccc21 (stereo unspecified)" result="102 % of control"
compound=COc1cc(/C=C/c2ccccn2)oc(=O)c1 result="102 % of control"

T/C in this record for "Nc1ccc(S(=O)(=O)n2c(=O)oc3ccc(Cl)cc32)cc1" : 97 % of control

T/C in this record for "CC(C)OC(=O)Cn1c(=O)c2nnnn2c2ccccc21" : 93 % of control

====

Tested on: P388 leukemia ip, CD2F1 mice, survival T/C
experimentalProtocol: NCI In Vivo Anticancer Drug Screen. Data for tumor model P388 Leukemia (intraperitoneal) in CD2F1 (CDF1) mice
assaySetup: endpoint: median survival time; dose: 120.0 mg/kg/injection; schedule: Q01DX005 (ip); vehicle: saline with Tween-80; higher = longer survival
Toxic doses and inconclusive results are not listed.
readoutName: T/C

compound="COc1ccc(C(c2cc3c(cc2O)OCO3)N2CCN(C(c3ccc(OC)cc3)c3cc4c(cc3O)OCO4)CC2)cc1 (centres undefined)" result="92 % of control"

T/C in this record for "CC(=Nc1c(Cl)c(Cl)c2c(c1Cl)C(=O)c1cc(Cl)ccc1-2)NO" : 104 % of control

T/C in this record for O=C(c1ccccc1)C1COc2ccccc2C1O (centres undefined) : 94 % of control

T/C in this record for CC(NCCN(C)C)C1CC2CCCCN2C1 (centres undefined) : 97 % of control

T/C in this record for "CSc1nnc(CCC(=O)Nc2ccc(Cl)cc2Cl)o1" : 108 % of control

T/C in this record for "CCOc1ccccc1NC(=O)NCC(=O)NNC(=O)Nc1ccc(Cl)c([N+](=O)[O-])c1" : 98 % of control

T/C in this record for Cc1ccc(C)c(NC(=O)C(=O)C(C#N)c2c(Cl)cccc2Cl)c1 (centres undefined) : 102 % of control

T/C in this record for "CCN(CC)C(=O)c1cc(OC)c(C(=O)N(CC)CC)cc1OC" : 108 % of control

T/C in this record for "Nc1nc(NCCCc2ccccc2)c(N=Nc2ccccc2)c(=O)[nH]1" : 105 % of control

T/C in this record for C=C1C=CN(C(C)=O)C(OC(C)=O)C1SC(C)(C)C (centres undefined) : 95 % of control

T/C in this record for "ClCc1ccc2ccc3ccc(CCl)nc3c2n1" : 100 % of control

T/C in this record for "CNc1ccc2[nH]c3ccccc3c2c1" : 112 % of control

T/C in this record for "C=C1CN(CCc2ccccc2)C(=S)S1" : 102 % of control

T/C in this record for "Cc1cc2c(=O)c(C(=O)O)c[nH]c2cc1-n1cccc1" : 100 % of control

T/C in this record for "Nc1nc(=O)nc2[nH]c3c4cccc5cccc(c3nc12)c54" : 93 % of control

T/C in this record for COc1cccc2c1[C@@]1(C)C3C(=O)OC(C)(c4ccccc43)[C@@]1(C)C2=O (some centres undefined) : 110 % of control
